- assay_target: Prostaglandin G/H synthase 1 (Ovis aries)
- Sequence (P05979 whole entry): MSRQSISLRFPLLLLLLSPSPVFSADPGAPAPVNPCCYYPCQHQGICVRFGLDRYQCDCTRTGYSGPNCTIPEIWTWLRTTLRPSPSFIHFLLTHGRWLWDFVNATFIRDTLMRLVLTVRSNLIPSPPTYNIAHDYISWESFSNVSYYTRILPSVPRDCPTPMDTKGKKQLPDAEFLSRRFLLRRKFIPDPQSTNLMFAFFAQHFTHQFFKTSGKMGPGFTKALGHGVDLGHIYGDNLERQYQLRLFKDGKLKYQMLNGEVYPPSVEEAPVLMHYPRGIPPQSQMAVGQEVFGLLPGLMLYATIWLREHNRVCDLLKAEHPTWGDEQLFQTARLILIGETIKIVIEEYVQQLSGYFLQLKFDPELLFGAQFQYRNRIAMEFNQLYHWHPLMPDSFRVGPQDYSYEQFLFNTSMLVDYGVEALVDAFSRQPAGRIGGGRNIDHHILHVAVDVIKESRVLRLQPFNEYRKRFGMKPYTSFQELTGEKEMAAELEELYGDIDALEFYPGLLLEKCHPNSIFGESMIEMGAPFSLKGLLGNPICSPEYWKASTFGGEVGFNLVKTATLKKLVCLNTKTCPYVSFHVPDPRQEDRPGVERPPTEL
- test_details: Inhibition of ovine COX1 using arachidonic acid substrate assessed as PGE2 production ELISA method after 2 mins
pIC50: −log10 of the molar value.
quantity_kind: pIC50

molecule | quantity_kind | reported_value
CN(C)c1ccc(/C=C/C(=O)C2CCc3ccccc3C2=O)c([N+](=O)[O-])c1 (centres undefined) | pIC50 | 4.53

[a] COc1cc(/C=C/C(=O)CC(=O)/C=C/c2ccc(O)c(OC)c2)ccc1O
[b] O=C1/C(=C/c2ccc(N3CCCC3)cc2)CN(Cc2ccccc2)C/C1=C\c1ccc(N2CCCC2)cc1
[c] CCOC(OCC)c1ccc(/C=C/C(=O)C2CCc3ccccc3C2=O)cc1 (centres undefined)
Task item: Hello, I need these entries ordered by pIC50, highest reading first. Thanks! Your answer should be the labels, listed in the requested order.
Reply: c, a, b
